Data credit: paper PMC9490041

# SYSTEM TESTED: PSG (PSD-95)
# TEST NAME: FP displacement (competition) of FITC-15 AA CRIPT by library peptide, IC50 and Ki
# CONDITION PARAMETERS: read-out: IC50 (µM), PSG; FP displacement of FITC-15 AA CRIPT probe by acetylated PSD library peptide
Listed here are molecules together with their documented IC50.
READOUT TYPE: IC50

>  <MOLECULE>
CC(=O)N[C@@H](Cc1ccc(O)cc1)C(=O)N[C@@H](CCC(N)=O)C(=O)N[C@@H](CCCNC(=N)N)C(=O)NCC(=O)N[C@@H](CO)C(=O)N[C@@H](Cc1ccccc1)C(=O)N1CCC[C@H]1C(=O)N1CCC[C@H]1C(=O)N[C@@H](Cc1c[nH]c2ccccc12)C(=O)N[C@H](C(=O)N[C@@H](CCC(N)=O)C(=O)N[C@@H](CCC(N)=O)C(=O)N[C@H](C(=O)N[C@@H](CCCNC(=N)N)C(=O)N[C@H](C(=O)O)C(C)C)[C@@H](C)O)C(C)C [SYNGAP⍺1]

>  <TEST RESULT>
4.24 µM

$$$$
>  <MOLECULE>
CSCC[C@H](NC(=O)[C@H](CO)NC(=O)[C@H](Cc1ccc(O)cc1)NC(=O)[C@H](CC(C)C)NC(=O)[C@H](Cc1ccc(O)cc1)NC(=O)[C@H](Cc1ccc(O)cc1)NC(=O)[C@H](Cc1ccccc1)NC(=O)[C@H](Cc1ccc(O)cc1)NC(C)=O)C(=O)N[C@H](C(=O)N[C@@H](Cc1ccc(O)cc1)C(=O)N[C@H](C(=O)N[C@@H](CC(C)C)C(=O)N[C@H](C(=O)N[C@@H](CO)C(=O)N[C@@H](Cc1ccccc1)C(=O)O)C(C)C)[C@@H](C)O)C(C)C

>  <TEST RESULT>
2080 µM

$$$$

* * *

# SYSTEM TESTED: PSG G335A (PSD-95)
# TEST NAME: FP displacement (competition) of FITC-15 AA CRIPT by library peptide, IC50 and Ki
# CONDITION PARAMETERS: read-out: Ki (µM), PSG G335A; FP displacement of FITC-15 AA CRIPT probe by acetylated PSD library peptide
Ki for assorted molecules

>  <MOLECULE>
CC[C@H](C)[C@H](NC(=O)[C@@H]1CCCN1C(=O)[C@H](Cc1ccc(O)cc1)NC(C)=O)C(=O)NCC(=O)NCC(=O)N[C@@H](CO)C(=O)N[C@@H](CC(C)C)C(=O)N[C@@H](CC(N)=O)C(=O)N[C@@H](CO)C(=O)N[C@H](C(=O)N[C@H](C(=O)N[C@@H](CC(=O)O)C(=O)N[C@@H](CO)C(=O)N[C@@H](C)C(=O)N[C@@H](CC(C)C)C(=O)O)[C@@H](C)O)[C@@H](C)O [RGS14]

>  <Ki>
83 µM

$$$$
>  <MOLECULE>
CC(=O)N[C@@H](Cc1ccc(O)cc1)C(=O)N[C@@H](CC(C)C)C(=O)N[C@@H](Cc1c[nH]cn1)C(=O)NCC(=O)N[C@@H](Cc1c[nH]cn1)C(=O)N[C@@H](CCCNC(=N)N)C(=O)N[C@@H](Cc1ccc(O)cc1)C(=O)N[C@@H](CO)C(=O)N[C@@H](CO)C(=O)NCC(=O)N[C@@H](CO)C(=O)N[C@@H](CCCNC(=N)N)C(=O)N[C@@H](CO)C(=O)N[C@@H](CC(C)C)C(=O)N[C@H](C(=O)O)C(C)C [IQEC3]

>  <Ki>
240 µM

$$$$
>  <MOLECULE>
CC(=O)N[C@@H](Cc1ccc(O)cc1)C(=O)N[C@H](C(=O)N[C@@H](CCC(=O)O)C(=O)N[C@@H](CO)C(=O)N[C@@H](CCCCN)C(=O)N[C@@H](CCCCN)C(=O)N[C@@H](Cc1c[nH]cn1)C(=O)NCC(=O)N[C@@H](CCCNC(=N)N)C(=O)N[C@@H](Cc1c[nH]c2ccccc12)C(=O)N[C@@H](CCCCN)C(=O)N[C@@H](CC(C)C)C(=O)N[C@@H](Cc1c[nH]c2ccccc12)C(=O)N[C@@H](Cc1ccccc1)C(=O)N[C@@H](CC(C)C)C(=O)O)[C@@H](C)O [INSY2]

>  <Ki>
438 µM

$$$$
>  <MOLECULE>
CC(=O)N[C@@H](Cc1ccc(O)cc1)C(=O)N[C@@H](CC(C)C)C(=O)N1CCC[C@H]1C(=O)N[C@@H](CC(C)C)C(=O)N[C@@H](CC(=O)O)C(=O)N[C@H](C(=O)N[C@@H](CCC(N)=O)C(=O)N[C@@H](CCC(=O)O)C(=O)NCC(=O)N[C@@H](CC(=O)O)C(=O)N[C@@H](Cc1ccccc1)C(=O)N[C@@H](CCC(N)=O)C(=O)N[C@H](C(=O)N[C@@H](CCC(=O)O)C(=O)N[C@H](C(=O)O)C(C)C)[C@@H](C)O)C(C)C [AGRB3]

>  <Ki>
402 µM

$$$$
